# self-cleavage per record follows
B1: CPEB3 Ribozyme (parent)
chain: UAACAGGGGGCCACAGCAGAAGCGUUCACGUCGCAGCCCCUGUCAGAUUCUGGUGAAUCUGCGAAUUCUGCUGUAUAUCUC

Variants of: B1
EXPERIMENT_SUMMARY: self-cleavage, relative activity (ratio to wild type); higher = more cleavage; in vitro, sequencing
REPORTED_METRIC: self-cleavage

1. UAACAGGGGGCCACAGCAGAAGCGUUCACGUCGCAGCCCCUGUCAGAUUCUGGAGAAUCUGCGAAUUCUGCUGUAUAUUUC [U54A C79U]    1.16
2. UAACAGGGGGCCACAGCAGAAGCGUUCACGUCGCAGCCCCUGUCAGAUUCUGGUGAAUCUGCGAAUGCUGCAGUAUAUCUC [U67G U72A]    0.36
3. UAACAGGGGGCCACAGCAGAAGCGUUCACGUCGCAGCCCCUGUCAGAUUCUGGUGAAUCUGCUAAUUCUGCUGUAUGUCUC [G63U A77G]    1.24
4. UAACAGGGGGCCACAGCAGAAGCGUUCACGUCGCAGCCCCUGUCAGAUUCUCGUGAAUCUGCGAAUCCUGCUGUAUAUCUC [G52C U67C]    0.57
5. UAACAGGGGGCCACAGCAGAAGCGCUCACGUAGCAGCCCCUGUCAGAUUCUGGUGAAUCUGCGAAUUCUGCUGUAUAUCUC [U25C C32A]    0.22
6. UAACAGGGGGCCACAGCAGAAGCGUUCACGUCGCAGCCCCUGUCAGAUUCUGGUGAAUCUGCGAGUUCUGCUUUAUAUCUC [A65G G73U]    1.19
7. UAACAGGGGGCCACAGCAGAAGCGUUCACGUCGCAGCCCCUGUCAGUUUCUGGUGAAUUUGCGAAUUCUGCUGUAUAUCUC [A47U C59U]    0.2
8. UAACAGGGGGCCACAGCUAAAGCGUUCACGUCGCAGCCCCUGUCAGAUUCUGGUGAAUCUGCGAAUUCUGCUGUAUAUCUC [A18U G19A]    0.15
9. CAACAGGGGGCCACAGCAGAAGGGUUCACGUCGCAGCCCCUGUCAGAUUCUGGUGAAUCUGCGAAUUCUGCUGUAUAUCUC [U1C C23G]    0.42
10. UAACAGGGGGCCACAGCAGAAGCGUACACGUCGCAGCCCCUGUCAGAUUCUGGUGAAUCUGCGAAUUCCGCUGUAUAUCUC [U26A U69C]    0.4
11. UAACAGGGGGCCACAGCAGAAGCGUUCACGUCCCAGCCCCUGUCAGAUUCUGGUGAAUCUGCGAAUUCUGCUGUGUAUCUC [G33C A75G]    0.18
12. UAACAGGGGGCCAUGGCAGAAGCGUUCACGUCGCAGCCCCUGUCAGAUUCUGGUGAAUCUGCGAAUUCUGCUGUAUAUCUC [C14U A15G]    1.13
13. UAACAGGGGGCCACAGCAGAAGCGUUCACGUCCCAGCCCCUGUCAGAUUCUGGUGAAUCUGUGAAUUCUGCUGUAUAUCUC [G33C C62U]    0.14
14. UGCCAGGGGGCCACAGCAGAAGCGUUCACGUCGCAGCCCCUGUCAGAUUCUGGUGAAUCUGCGAAUUCUGCUGUAUAUCUC [A2G A3C]    0.89
15. UAACAAGGGGCCACAACAGAAGCGUUCACGUCGCAGCCCCUGUCAGAUUCUGGUGAAUCUGCGAAUUCUGCUGUAUAUCUC [G6A G16A]    0.29
16. UAACAGGGGGCCACAGCAGAAGCGUUCACGCUGCAGCCCCUGUCAGAUUCUGGUGAAUCUGCGAAUUCUGCUGUAUAUCUC [U31C C32U]    0.22
17. UAACAGGGGGCCACAGCAGAAGCGUUCACGUCGCAGCCCCUGUCAGAGUCUGGUGAAUCUGCGAAUUCCGCUGUAUAUCUC [U48G U69C]    0.34
18. UAACAGGGGGCCACAGCAGAAGCGUUCACGUCGCAGCCCCUGUCAGAUUCUGGCGAGUCUGCGAAUUCUGCUGUAUAUCUC [U54C A57G]    0.66
19. UAACAGGGGGCCACAGCGGAAGCGUUCACGUCGCAGCCCCAGUCAGAUUCUGGUGAAUCUGCGAAUUCUGCUGUAUAUCUC [A18G U41A]    0.26
20. UGACAGGGGGCCACAGCAGAAGCGUUCACGUCGCAGCCCCUGUCAGAUUCUGGUGAAUCUGCGAAUUCCGCUGUAUAUCUC [A2G U69C]    0.32
21. UAACAGGGGGCCACAGCAGAAGCGUUCCCGUCGCAGCCCCUGUCAGAUUCUGGUGAAUCUGCGAAUUCUGCUGUACAUCUC [A28C U76C]    0.53
22. UGACAGGGGGCCAUAGCAGAAGCGUUCACGUCGCAGCCCCUGUCAGAUUCUGGUGAAUCUGCGAAUUCUGCUGUAUAUCUC [A2G C14U]    0.49
23. UAACAGGGGGCCACAGCAGAUGCGUUCACGUCGCAGCCCCUGUCAGAUUCUGGUGAAUCUGCGAAUUCUGCUGUAUAACUC [A21U U78A]    0.38
24. UAACAGGGGGCCACAGCAGAAGCGUUCACGUCGCAGCCCCUGUCAGAUUCUGGCGAAUCUGCGAAUUCUGCUGUAUAGCUC [U54C U78G]    1.07
25. UAACAGGGGGCCACAGCAGAAGCGUUCGCGUCGCAGCCCCUGUCAGAUUCUGGUGAAUCCGCGAAUUCUGCUGUAUAUCUC [A28G U60C]    0.25
26. UAACAGGGGGCCACAGCAGAAGCGUUCACGACGCAGCCCCUGUCAGUUUCUGGUGAAUCUGCGAAUUCUGCUGUAUAUCUC [U31A A47U]    0.29
27. UAACAGGGGGCCACAGCAGAAGCGCUCACGUCGCAGCCCCUGUCAGAUUCUGGUGAAUCUGCGAAUUCUGGUGUAUAUCUC [U25C C71G]    0.1
28. UAACAGGGGGCCACAGCAGAAGCGUUCACGUCGCAGCCCCUGUCAUAUUCUGGUGUAUCUGCGAAUUCUGCUGUAUAUCUC [G46U A56U]    0.17
29. UAACAGGGGGCCACAGCAGAAGCGUUCACGUCGUAGCCCCUGUCGGAUUCUGGUGAAUCUGCGAAUUCUGCUGUAUAUCUC [C34U A45G]    0.34
30. UAACAGGGGGUCACAGCAGAAGCGUUCACGUCGCAGCCCCUGUCAGAUUCUGGUGAAUCUGCGAAUACUGCUGUAUAUCUC [C11U U67A]    0.36
31. UAACAGGGGGCCACAGCAGAAGCGUUCACGUCGCAGCCCCUGUCAGAUUCUGGAGACUCUGCGAAUUCUGCUGUAUAUCUC [U54A A57C]    0.77
32. UAGCAGGGGGCCACAGCAGAAGCGUUCACGUCGCAGCCCCUGUCAGAUUCUGGUGAAUCUGGGAAUUCUGCUGUAUAUCUC [A3G C62G]    0.32
33. UAACAGGGGGCCACAGCAGAAGCGUUCACGUCGCAGCCCCUGUCAGAUCCUGGUGCAUCUGCGAAUUCUGCUGUAUAUCUC [U49C A56C]    0.42
34. UAACAGGCGGCCACAGCAGAGGCGUUCACGUCGCAGCCCCUGUCAGAUUCUGGUGAAUCUGCGAAUUCUGCUGUAUAUCUC [G8C A21G]    0.06
35. UAACAGGGGGCCGCAGCAGAAGCGUUCACGUCGCAGCCCCUGUCAGAUUCUGGUGAAUCUGCGAAUUCUGCUGUAUGUCUC [A13G A77G]    0.69
36. UAACAGGGGGCCACAGCAGAAGCGUUCACGUCGCAGCCACUGUCAGAUUCUGGUGAAUCUGCGAAUUCUGCUGCAUAUCUC [C39A U74C]    0.49
37. UAACAGGGGGCCACAGCAGAAGCGUUCACGUCGCAGCCCCUGUCAGAUUCUGGUUAAUCUGCGAUUUCUGCUGUAUAUCUC [G55U A65U]    0.31
38. UAACAGGGGGCAACAGGAGAAGCGUUCACGUCGCAGCCCCUGUCAGAUUCUGGUGAAUCUGCGAAUUCUGCUGUAUAUCUC [C12A C17G]    0.16
39. UAUCAGGGCGCCACAGCAGAAGCGUUCACGUCGCAGCCCCUGUCAGAUUCUGGUGAAUCUGCGAAUUCUGCUGUAUAUCUC [A3U G9C]    0.25
40. UAACAGGGGGCCACAGCAGAAGCGUUCACGUCGCAGCCCCUGUCAGAUUCUGGUGAACCUGCUAAUUCUGCUGUAUAUCUC [U58C G63U]    0.91
41. UAACAGGGGGCCACAGCAGAAGCGUUCACGUCGCAGCCCCUGUCAGAUUCCGGUGACUCUGCGAAUUCUGCUGUAUAUCUC [U51C A57C]    0.44
42. UAACAGGGGGCCACUGCAGAAGCGUUCACGUCGCAGCCCCUGUCAGAUUCUGGUGAAUCUGCGAAUUCUGCUGUAUUUCUC [A15U A77U]    0.71
43. UAACAGGGGGCCACAGCAGAAGCGUUCACGUCGCAGCCCAUGUCCGAUUCUGGUGAAUCUGCGAAUUCUGCUGUAUAUCUC [C40A A45C]    0.23
44. UAACAGGGGGCCACAGCAGAAGCGUUCACGUCGCAGCCCCUGUCAGAUUCAGGUGAAUCUGCGAACUCUGCUGUAUAUCUC [U51A U66C]    0.42
45. UAACAGGGGGCCACAGCAGAAGCGUUCACGUCGCAACCCCUGUCAGAUUCUGGUGAAUCUGCGAGUUCUGCUGUAUAUCUC [G36A A65G]    0.17
46. UAACAGGGGACCACAGCAGAAGCGUUCACGUCGCAGCCCCUGUCAGAUUCUGGUGAAUCUGCGAUUUCUGCUGUAUAUCUC [G10A A65U]    0.14

These measurements were taken from the RNAGym collection of RNA variant scans (doi:10.1093/nar/gkz1192).
